Attribution: patent US9980943B2

Test system: β-galactosidase in CMV-LacZ C2C12 myotubes
assay text: CMV-LacZ secondary screen in C2C12 myotubes (β-Gal stabilizing assay)
Assay type: cell-based, mouse
experimental parameters: 20 uM; C2C12 CMV-LacZ myotubes; fold relative to DMSO
Please provide measured CMV-LACZ in Myotubes, signal relative to DMSO for the entries that follow.
Answers are plain numbers.

compound	observed measurement
CCN(C(=O)c1ccc(S(=O)(=O)N(C)C)cc1)C(C)C(=O)Nc1ccc(C)cc1 (stereo not drawn) [MLS001170856-01]	1.1518

Go through the items and report each one's CMV-LACZ in Myotubes, signal relative to DMSO.
1. COc1ccc(CNC(=O)C2CCCN(S(=O)(=O)c3c(C)noc3/C=C/N(C)C)C2)cc1 (stereo not drawn) [MLS000925023-01]
2. O=C(c1ccccc1)N1CCN(S(=O)(=O)c2cccs2)CC1 [MLS001035690-01]
3. CC(O)CNc1nc2c(c(=O)n(Cc3ccc(Br)cc3)c(=O)n2C)n1C (stereo not drawn) [MLS001212319-01]
4. CC(C)(C)Nc1nc(-c2ccc3c(c2)CCN3C(=O)C2CC2)cs1 [MLS001216939-01]

Solution:
1: 1.1565; 2: 1.1976; 3: 0.9965; 4: 1.1518

Go through the items and report each one's CMV-LACZ in Myotubes, signal relative to DMSO.
1. Nc1cccc(/C=C/C(=O)O)c1 [MLS000777780-01]
2. Cc1cccn2c(=O)c3cc(C(=O)NC4CCCCC4)n(C)c3nc12 [MLS001117351-01]
3. CCCNC(=S)N1CCC(NC(=O)c2ccc(OC)cc2)CC1 [MLS001211651-01]

Solution:
0.9316
1.1481
0.8465

Given item COc1ccc(CNC(=O)CCN2C(=O)c3ccccc3C2=O)cc1 [MLS001200980-01] , the value recorded as its CMV-LACZ in Myotubes, signal relative to DMSO is 0.9272
